Provide the reported viability of each item.
# method-summary: P. berghei load reduction in hepatocytes – cell-based, HepG2, luciferase luminescence, HepG2 viability, primary screen (AID 624349);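 also: 100% = mean of DMSO negative control wells on the same plate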
# test-settings: P. berghei liver stage in HepG2, luciferase luminescence, concentration not given here; measured here: HepG2 viability without parasites
Numbered stars: 1 amine (or outer) side, 2 acyl side, 3 side chain; on linkers, the order of the positions; unused ones are H or OH. Bridge positions count the residues as written; N and C are the ends. Square brackets hold non-standard residues; d marks the D form. Peptide text beside a SMILES is read from it. * marks the point of attachment. X4 = NC1=N[C@@H]([C@H](N[*:1])C(=O)[*:2])C[C@H](O)N1; ΔAla(Z-3-ureido) = NC(=O)N/C=C(\N)C(=O)O; β3hOrn = NCCC[C@H](N)CC(=O)*; Dap = NC[C@H](N)C(=O)O
Give bare numbers, in %.

Reference set (4 entries):
| compound | viability (%) |
| --- | --- |
| NC[C@@H]1O[C@H](O[C@H]2[C@@H](O)[C@H](O[C@@H]3[C@@H](O)[C@H](N)C[C@H](N)[C@H]3OC3O[C@H](CO)[C@@H](O)[C@H](O)[C@H]3N)O[C@@H]2CO)[C@H](N)[C@@H](O)[C@@H]1O (stereo partly drawn) | 103 |
| CCCCCCOC(=O)[C@]1(O)C[C@@H]2O[C@@]1(C)n1c3ccccc3c3c4c(c5c6ccccc6n2c5c31)C(=O)NC4 | 93.7 |
| CC(C)(C)NC[C@@H](O)COc1cccc2c1CCCC2=O | 97 |
| CS(=O)(=O)c1ccc([C@@H](O)[C@@H](COC(=O)CN)NC(=O)C(Cl)Cl)cc1 | 69.5 |

For every item below, please supply its viability.
1. COc1cc(Nc2ncc3ccn(-c4cccc(CCC#N)c4)c3n2)cc(OC)c1OC
2. Cc1c(Cl)cccc1Nc1ncccc1C(=O)O

[164, 70.4]

For every item below, please supply its viability.
1. Cn1cc(/C=C2\C(=O)Nc3ccc(S(N)(=O)=O)cc32)c2ccccc21
2. CCSc1ccc2c(c1)N(CCCN1CCN(C)CC1)c1ccccc1S2
3. Nc1ncnc2c1c(I)cn2[C@@H]1O[C@H](CO)[C@H](O)C1O (stereo partly drawn)
4. CCOC(=O)O[C@]1(C(=O)COC(=O)CC)CC[C@H]2[C@@H]3CCC4=CC(=O)C=C[C@]4(C)[C@H]3[C@@H](O)C[C@@]21C
5. CC(C)(CO)C(O)C(=O)NCCC(=O)O (stereo not drawn)
6. CCCCC(C)(O)C/C=C/[C@H]1[C@H](O)CC(=O)[C@@H]1CCCCCCC(=O)OC (stereo partly drawn)
7. Nc1ncn(C2O[C@H](CO)[C@@H](O)[C@H]2O)c(=O)n1 (stereo partly drawn)
8. NCCC[C@H](N)CC(=O)N[C@H]1CNC(=O)[C@H]([C@H]2C[C@H](O)NC(N)=N2)NC(=O)/C(=C/NC(N)=O)NC(=O)[C@H](CO)NC(=O)[C@H](CO)NC1=O (β3hOrn-[Dap]SS[ΔAla(Z-3-ureido)][X4]; lactam 1-C)

1. 106
2. 70.9
3. 64.4
4. 80.3
5. 105
6. 64
7. 108
8. 75

###

# method-summary: MELAS cybrid and Rieske KO viability enhancers – cell-based, MELAS cybrids, Rieske KO mouse fibroblasts, CellTiter-Glo, primary screen (AID 1508586);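 also: z relative to plate mean and SD of compound and empty wells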
# test-settings: MELAS cybrid survival, low glucose, CellTiter-Glo 48 h
Active and inactive are the calls of the source.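 How the source made its calls: active means mean z-score across replicates of 1.96 or higher in either the MELAS or the Rieske mutant cell line; inactive means the rest.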
The reply should be one of these categories: class 1 (active), class 0 (inactive)

Some solved cases for reference:
| compound | class |
| --- | --- |
| O=C1Cc2c([nH]c3ccc(Br)cc23)-c2ncccc2N1 | class 0 |
| CC1COCCN1c1cc(C2(S(C)(=O)=O)CC2)nc(-c2cccc3[nH]ccc23)n1 (stereo not given) | class 1 |
| Nc1nc(NC(Cn2ccnc2)c2ccccc2)c2cn[nH]c2n1 (stereo not given) | class 0 |
| NCCCNc1ccccc1[N+](=O)[O-] | class 0 |
| Nc1nc(CC(=O)Nc2ccc(CCNCC(O)c3ccccc3)cc2)cs1 (stereo not given) | class 0 |
| O=C(O)CC(O)CC(O)C=Cc1c(C2CC2)nc2ccccc2c1-c1ccc(F)cc1 (stereo not given) | class 0 |
| CN(C)CCC(CSc1ccccc1)Nc1ccc(S(=O)(=O)NC(=O)c2ccc(N3CCN(Cc4ccccc4-c4ccc(Cl)cc4)CC3)cc2)cc1[N+](=O)[O-] (stereo not given) | class 0 |
| Cc1csc(-c2cc(C(=O)NCCC3CCCN3C)cc(S(=O)(=O)N3CCOCC3)c2)c1 (stereo not given) | class 1 |
| Cn1c(=O)cc(N2CCCC(N)C2)n(Cc2ccccc2C#N)c1=O (stereo not given) | class 0 |
| Cc1ccc(C(=O)N[C@H]2C[C@H]3C(=O)N[C@@H](Cc4ccc(O)cc4)C(=O)N3C2)cc1F | class 0 |

In this assay, the call recorded for "Cc1nc2sccn2c1CN1CCC2(CC1)C(=O)N(CC(C)C)C(=O)N2CCc1ccccc1" was what?
class 0

In this assay, the call recorded for "CCn1ccnc1CN(C)C(=O)c1cc(-c2cnc(N)nc2)nc2c(C)cccc12" was what?
class 0

In this assay, the call recorded for CCn1nc(C(=O)N2CCCC2)c2c1CCC(NCCC1=CCCCC1)C2 (stereo not given) was what?
class 0

In this assay, the call recorded for "C[C@@]12CCC3=C4CCC(=O)C=C4CC[C@H]3[C@@H]1CC[C@@]2(O)CC#N" was what?
class 0

In this assay, the call recorded for Cc1nsc(NC(=O)N2CCCCC2c2nc(C(C)C)no2)n1 (stereo not given) was what?
class 0

In this assay, the call recorded for "CCc1nc(CNc2cc(C(=O)N[C@H](C)c3ccc(OC)cc3)cc(S(=O)(=O)N(C)C)c2)c(C)[nH]1" was what?
class 0

In this assay, the call recorded for "CC(C)C[C@H]1NC(=O)[C@H]2CN(C(=O)OCc3ccccc3)CCN2C1=O" was what?
class 0

In this assay, the call recorded for "O=C(COc1ccc(Cl)cc1)Nc1ccccc1C(=O)O" was what?
class 0

In this assay, the call recorded for CC1C[C@H]2[C@@H]3CCC4=CC(=O)C=C[C@]4(C)[C@@H]3C(=O)C[C@]2(C)[C@]1(O)C(=O)CO (stereo not given in full) was what?
class 0

In this assay, the call recorded for CN1C[C@H](C(=O)N[C@]2(C)O[C@@]3(O)[C@@H]4CCCN4C(=O)[C@H](Cc4ccccc4)N3C2=O)CC2c3cccc4[nH]cc(c34)C[C@H]21 (mixture of isomers) was what?
class 0

In this assay, the call recorded for CN(C)CC=CC(=O)Nc1cc2c(Nc3ccc(F)c(Cl)c3)ncnc2cc1OC1CCOC1 (stereo not given) was what?
class 1

In this assay, the call recorded for "COc1cc(CN2CCc3c(cc(Cc4ccccc4C)c(=O)n3CC3CC3)C2)ccc1O" was what?
class 0

In this assay, the call recorded for "O=C1Nc2ccc(I)cc2C1=Cc1cc(Br)c(O)c(Br)c1" was what?
class 0

In this assay, the call recorded for "CC(=O)Nc1ccc(NC(=S)NC(=O)c2ccc(C(C)(C)C)cc2)cc1" was what?
class 0

In this assay, the call recorded for "C#C[C@]1(OC(C)=O)CC[C@H]2[C@@H]3CCC4=CC(=NO)CC[C@@H]4[C@H]3CC[C@@]21CC" was what?
class 0
